# target.entity: DLG4_2, P78352
# Sequence (P78352 155-259): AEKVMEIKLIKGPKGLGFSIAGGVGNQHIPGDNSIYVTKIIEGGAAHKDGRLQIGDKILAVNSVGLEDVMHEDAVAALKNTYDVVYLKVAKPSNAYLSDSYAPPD
# assay.info: holdup assay
# Design: key: below the threshold = too weak to quantify, mostly under pKd 3.1 to 4
# test.settings: plain residues with an end cap or a label only (N-terminal biotin on a linker: ado-ado)
Ranges used to classify pKd: low = under 4, medium = from 4 up to 5, high = 5 and over

Returns: class label. Input: TPPAAKKSRI [BAZ1A, Q9NRL2]
low

Returns: class label. Input: KKMPSIESDV [GRIN2A, Q12879]
high

Returns: class label. Input: QGLAERISVL [PRKD2, Q9BZL6]
low

Returns: class label. Input: AKPSRISTVV [IQSEC2, Q5JU85]
high

Returns: class label. Input: QSLNRMEYIV [JAG1, P78504]
low

Returns: class label. Input: DDENIRTSDV [PLEKHA2, Q9HB19]
medium

Returns: class label. Input: EVEEFPETSV [TRPV3, Q8NET8]
medium

Returns: class label. Input: LRSPRTPSEV [OR10G3, Q8NGC4]
low

Returns: class label. Input: SKENVQETQI [LRRC4B, Q9NT99]
medium
